Target: CYP2C19 (Homo sapiens)
Sequence (P33261 whole entry): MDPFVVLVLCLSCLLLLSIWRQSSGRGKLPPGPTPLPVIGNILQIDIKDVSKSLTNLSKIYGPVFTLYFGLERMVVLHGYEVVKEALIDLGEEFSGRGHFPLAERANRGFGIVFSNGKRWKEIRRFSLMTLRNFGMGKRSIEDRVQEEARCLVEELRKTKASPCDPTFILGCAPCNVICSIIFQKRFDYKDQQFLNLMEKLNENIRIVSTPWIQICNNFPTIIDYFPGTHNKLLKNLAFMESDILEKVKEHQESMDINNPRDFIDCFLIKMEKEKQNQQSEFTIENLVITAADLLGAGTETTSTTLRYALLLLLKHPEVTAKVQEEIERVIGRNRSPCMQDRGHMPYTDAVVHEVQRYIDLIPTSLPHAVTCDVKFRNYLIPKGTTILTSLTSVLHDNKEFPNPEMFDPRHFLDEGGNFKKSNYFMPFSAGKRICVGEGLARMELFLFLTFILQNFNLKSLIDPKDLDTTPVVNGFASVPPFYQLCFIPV
ATTRIBUTE MEASURED: IC50 (µM)
Answer in µM, number only, no unit symbol.

Prompt: If you can, please state the reported IC50 value of c1ccc(C(OC2CCCN(CCc3ccc4c(c3)OCO4)C2)c2ccccc2)cc1 (stereo not drawn) [zamifenacin, reference compound] .
Completion: 3.6

Prompt: For [2H]C1([2H])Oc2ccc(CCN3CCCC(OC(c4ccccc4)c4ccccc4)C3)cc2O1 (stereo not drawn) then?
Completion: 5.1

Prompt: For [2H]C1([2H])Oc2ccc(C([2H])([2H])C([2H])([2H])N3CCCC(OC(c4ccccc4)c4ccccc4)C3)cc2O1 (stereo not drawn) then?
Completion: 5.3

---

Molecular target: CYP2D6 (Homo sapiens, UniProt P10635)
Sequence (P10635 whole entry): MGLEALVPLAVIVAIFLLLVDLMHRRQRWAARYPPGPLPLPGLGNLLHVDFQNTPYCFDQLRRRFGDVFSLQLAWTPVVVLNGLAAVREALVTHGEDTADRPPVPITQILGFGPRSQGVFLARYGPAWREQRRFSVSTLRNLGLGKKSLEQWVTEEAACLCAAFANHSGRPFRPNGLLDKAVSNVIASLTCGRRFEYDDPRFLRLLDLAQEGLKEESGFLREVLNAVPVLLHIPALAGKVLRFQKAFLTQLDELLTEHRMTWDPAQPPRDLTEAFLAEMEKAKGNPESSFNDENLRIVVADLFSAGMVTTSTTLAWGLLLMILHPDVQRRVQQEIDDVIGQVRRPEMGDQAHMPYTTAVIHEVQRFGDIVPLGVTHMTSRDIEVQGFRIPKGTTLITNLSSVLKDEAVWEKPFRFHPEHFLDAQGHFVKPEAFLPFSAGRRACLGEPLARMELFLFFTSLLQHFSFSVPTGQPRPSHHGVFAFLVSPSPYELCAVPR
Test: In vitro inhibition of human cytochrome P450 CYP2D6 (fluorometric, 3-[2-(N,N diethyl-N-methylamino)ethyl]-7-methoxy-4-methylcoumarin substrate)
Type: in vitro ADME
Conditions: positive control; 40 minutes at 37° C.; read-out: IC50 for inhibition of CYP2D6 (positive control)
ATTRIBUTE MEASURED: pIC50
Units for pIC50: none; it is -log10 of a concentration expressed in mol/L.

Prompt: If you can, please state the reported pIC50 value of Cc1nc2c([nH]1)c(=O)n(C)c(=O)n2Cc1ccco1 [Furafylline, reference compound] .
Completion: 7.84
